Some compounds, each annotated with its measured inhibition.
# target_or_test_system: 3-oxo-5-alpha-steroid 4-dehydrogenase 1 (Homo sapiens) (UniProt P18405)
# Sequence (P18405 whole entry): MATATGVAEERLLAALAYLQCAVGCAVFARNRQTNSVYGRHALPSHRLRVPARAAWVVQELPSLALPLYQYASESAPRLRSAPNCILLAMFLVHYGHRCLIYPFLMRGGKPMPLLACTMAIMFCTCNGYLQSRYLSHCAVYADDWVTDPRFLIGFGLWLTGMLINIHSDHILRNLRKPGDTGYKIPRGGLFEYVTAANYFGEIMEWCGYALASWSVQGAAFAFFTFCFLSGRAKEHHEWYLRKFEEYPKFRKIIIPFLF
# procedure_text: Inhibition of Steroid 5-alpha-reductase type I of human DU 145 prostatic tumor cell line, at 10 uM

// known answers, use as guide
| chem_smiles | assay_readout | experimental_value |
| --- | --- | --- |
| CC(C)(C)OC(=O)N1CCC(Oc2ccc(C(=O)O)cc2)CC1 | inhibition | 2% |
| O=C(O)c1ccc(OC2CCN(C(=O)C34CC5CC(CC(C5)C3)C4)CC2)cc1 | inhibition | 7% |
| O=C(O)c1ccc(C=C2CCN(C(=O)CC(c3ccccc3)c3ccccc3)CC2)cc1 | inhibition | 8% |
| O=C(O)c1ccc(OC2CCN(C(=O)N(c3ccccc3)c3ccccc3)CC2)cc1 | inhibition | 10% |
| O=C(O)c1ccc(C=C2CCN(C(=O)C34CC5CC(CC(C5)C3)C4)CC2)c(F)c1 | inhibition | 20% |
| O=C(O)c1ccc(C=C2CCN(C(=O)C(c3ccccc3)c3ccccc3)CC2)cc1 | inhibition | 26% |
| O=C(O)c1ccc(C=C2CCN(C(=O)C(C3CCCCC3)C3CCCCC3)CC2)cc1 | inhibition | 46% |
| O=C(O)c1ccc(C=C2CCN(C(=O)N(c3ccccc3)c3ccccc3)CC2)cc1 | inhibition | 22% |

**Query** Given the entry `O=C(O)Cc1ccc(C=C2CCN(C(=O)C(C3CCCCC3)C3CCCCC3)CC2)cc1` , what inhibition was observed with 3-oxo-5-alpha-steroid 4-dehydrogenase 1 (Homo sapiens) (UniProt P18405)?
**Result** 6%

**Query** And the next one, `O=C(O)Cc1ccc(C=C2CCN(C(=O)C(C3CCCCC3)C3CCCCC3)CC2)c(F)c1` ?
**Result** 4%

**Query** And the next one, `COc1cc(C(=O)O)ccc1C=C1CCN(C(=O)C(C2CCCCC2)C2CCCCC2)CC1` ?
**Result** 5%

----------
# target_or_test_system: 3-oxo-5-alpha-steroid 4-dehydrogenase 2 (Rattus norvegicus, UniProt P31214)
# Sequence (P31214 whole entry): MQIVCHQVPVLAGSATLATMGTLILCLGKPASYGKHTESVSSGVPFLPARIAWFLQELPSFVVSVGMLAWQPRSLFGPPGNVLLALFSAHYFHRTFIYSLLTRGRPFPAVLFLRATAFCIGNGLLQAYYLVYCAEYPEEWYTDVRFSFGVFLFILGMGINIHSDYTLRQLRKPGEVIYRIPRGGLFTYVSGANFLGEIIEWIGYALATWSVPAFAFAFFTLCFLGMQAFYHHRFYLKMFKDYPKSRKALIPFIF
Some molecules, each annotated with its measured IC50.
Number first, unit second: that is the form wanted.

// known answers, use as guide
| chem_smiles | IC50 |
| --- | --- |
| O=C(O)c1ccc(C=C2CCN(C(=O)N(c3ccccc3)c3ccccc3)CC2)cc1 | 0.69 µM |
| O=C(O)c1ccc(C=C2CCN(C(=O)CC(c3ccccc3)c3ccccc3)CC2)cc1 | 0.88 µM |
| COc1cc(C(=O)O)ccc1C=C1CCN(C(=O)C(c2ccccc2)c2ccccc2)CC1 | 0.94 µM |

**Query** Quick check: IC50 of `O=C(O)c1ccc(C=C2CCN(C(=O)C(c3ccccc3)c3ccccc3)CC2)c(F)c1` ?
**Result** 1.1 µM

----------
# target_or_test_system: UniProt:P18405
# procedure_text: Inhibition of Steroid 5-alpha-reductase type I of human DU 145 prostatic tumor cell line, at 10 uM
assay_readout: inhibition (%)
Give your result in % as a bare value.

// known answers, use as guide
| chem_smiles | target_or_test_system | inhibition (%) |
| --- | --- | --- |
| O=C(O)c1ccc(C=C2CCN(C(=O)C(C3CCCCC3)C3CCCCC3)CC2)c(F)c1 | UniProt:P18405 | 12 |
| O=C(O)c1cccc(C=C2CCN(C(=O)C(c3ccccc3)c3ccccc3)CC2)c1 | UniProt:P18405 | 6 |
| O=C(O)c1ccc(C=C2CCN(C(=O)C(c3ccccc3)c3ccccc3)CC2)c(F)c1 | UniProt:P18405 | 2 |
| COc1cc(C(=O)O)ccc1C=C1CCN(C(=O)C(c2ccccc2)c2ccccc2)CC1 | UniProt:P18405 | 8 |
| O=C(O)c1ccc(C=C2CCN(C(=O)C34CC5CC(CC(C5)C3)C4)CC2)cc1 | UniProt:P18405 | 44 |

Next compound, inhibition to be filled in.
**Query** Quick check: inhibition of `COc1cc(C(=O)O)ccc1C=C1CCN(C(=O)C23CC4CC(CC(C4)C2)C3)CC1` ?
**Result** 10
